# System: SK-MEL-5
# TEST_SUMMARY: NCI tumour cell line growth inhibition, 48 h
The source made the active and inactive calls. Rule as the data show it: active = GI50 up to about 1.1 µM and inactive = higher.
REPORTED_ENDPOINT: GI50

Here's what some known entries look like.
MOLECULE	GI50
CC1=C2C(O)C(C(C)C(=O)NCC(C)C)CCC2(C)C=CC1=O (stereo unspecified)	> 100 µM (inactive)
COc1ccccc1/C=C1\SC(=S)N(/C=C2\C(=O)Oc3ccccc3C2=O)C1=O	20.5 µM (inactive)
COc1ccc(OC(C(=O)O)c2ccccc2)c2c1CCCC2=O (stereo unspecified)	> 100 µM (inactive)
NC(=S)NS(=O)(=O)c1ccc(F)cc1	> 100 µM (inactive)
Oc1ccc(Cl)cc1-c1cc(-c2ccccc2)nc(S)n1	> 100 µM (inactive)

Which GI50 value is on record for CN(C)CCC1(C2=CCCC2)CC/C(=C\c2ccc3c(c2)OCO3)C1=O (stereo unspecified) ?
14.1 µM (inactive)
